Each entry below carries its recorded protection from H2O2 cell death.
experiment: H9c2 cardiomyocyte survival under peroxide injury – uHTS, H9c2 cells, ATPLite luminescence, primary screen (AID 588492); conditions: H9c2 cardiomyocytes, 2 h, at 20 µM, hits give high values;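 note: 0% = DMSO wells with peroxide and 100% = DMSO wells without peroxide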
In all, about 360,000 compounds went through this assay and about 2,300 (0.64%) were called active. The full list was thinned out, with actives kept by preference.
Supply the numeric figure in %, leaving out any unit text.

Solved entries (count: 5):
Requested read-out: protection from H2O2 cell death. Entry: Cc1ccccc1NC(=O)COc1cccc2c1CCNC2=O
70.7

Could you do the same for O=C(COc1cccc2c1CCNC2=O)NC1CCCCC1 , please?
56.1

And the next one, N#Cc1ncc(C(F)(F)F)cc1Oc1cccnc1 ?
-0.3

Similarly, NC(=NC(=O)c1ccccc1)C1=C(O)CCC1=O ?
-0.2

Then CCCCC(=O)NC(c1ccc(OC)c(OC)c1)c1ccc2cccnc2c1O (stereo not drawn) ?
36.9

***
Request the reported protection from H2O2 cell death associated with [O-][n+]1ccc(OCc2ccccc2)cc1
-5.2

Subsequent entry: Cc1ccc(CNS(=O)(=O)c2ccc3c(c2)N(C)CCO3)cc1
-9.1

Try this molecule too: O=C(CCS(=O)(=O)Cc1ccccc1)Nc1ccc2c(c1)OCCO2
0.6

----------
assay: H9c2 cardiomyocyte survival under peroxide injury – uHTS, H9c2 cells, ATPLite luminescence, primary screen (AID 588492); settings: H9c2 cardiomyocytes, 2 h, at 20 µM, hits give high values;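 note: 0% = DMSO wells with peroxide and 100% = DMSO wells without peroxide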
The whole screen tested about 360,000 compounds, of which about 2,300 (0.64%) were called active. The sample holds actives, similar compounds and a random draw of the others, so the mix is not that of the screen.
List of protection from H2O2 cell death values.
# output: bare number, implied unit %

The examples below pair each entry with its known result.
I would be grateful if you could share the reported protection from H2O2 cell death for Cn1c2ccc(F)cc2c2nnc(NN)nc21 .
56.4

Would you mind doing COC(=O)c1ccc(Nc2ncnc3sccc23)cc1 as well?
5.6

Cc1ccc(NC(=O)C2CC2c2ccccc2)cc1 (stereo not given) ?
-6.9

// next record O=C(CSCc1ccccc1Cl)NNC(=O)c1ccccc1
1.3

And what about the molecule CCn1cc(C(=O)N[C@@H](C)C(=O)NCCO)c(=O)c2cc3c(cc21)OCO3 ?
3

And for Cc1ccc2nc3c(cc(C(=O)NCCc4ccccc4)c(=N)n3CC3CCCO3)c(=O)n2c1 (stereo not given) ?
5.6

Continuing:
Please look up its protection from H2O2 cell death: O=C1OC[C@@H]2CCCN2C(=O)[C@H](CC(=O)N(CCO)Cc2ccccc2)C/C=C\CC[C@@H]1Cc1ccc(F)cc1
2.9

Now consider O=C1OCCC1=COCCCCOC=C1CCOC1=O and answer again.
3

Please answer likewise for C[C@@H]1CC[C@]2(O[C@@H](CCO)C[C@H](O)[C@H]2O)O1
-5.8

Subsequent entry: CN(C)c1nc(NN)nc(Nc2ccc(F)cc2)n1
-2.7

----------
assay: H9c2 cardiomyocyte survival under peroxide injury – uHTS, H9c2 cells, ATPLite luminescence, primary screen (AID 588492); details: H9c2 cardiomyocytes, 2 h, at 20 µM, hits give high values;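 note: 0% = DMSO wells with peroxide and 100% = DMSO wells without peroxide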
Out of some 360,000 compounds screened, about 2,300 (0.64%) were called active. The sample as a whole holds a higher share of actives than the screen did.
Measurement Label: protection from H2O2 cell death (%)
Enter your answer as a number in %; do not include the unit.

Please look up its protection from H2O2 cell death: O=C(c1ccc(O)cc1)c1ccc(C(=O)O)c(C(=O)O)c1
5.7

Thanks! And CC(C)(C)OC(=O)C[C@@H]1C/C=C\C[C@@H](CC(=O)N[C@H](CO)Cc2ccccc2)C(=O)NC[C@@H](c2ccccc2)OC1=O ?
51.6

# iterate: O=C(NCCN1C(=O)C2C3C=CC(C3)C2C1=O)Nc1ccccn1 (stereo unspecified)
-2.9

New cases:
Reported protection from H2O2 cell death, compound NC(=O)c1cc(-c2cccnc2)nc2ccc(Br)cc12 : ____
0.3

Query COc1ccc(NS(=O)(=O)c2ccc(C)c(C(=O)NCC(c3cccs3)N3CCOCC3)c2)cc1 (stereo unspecified) next
-1.3

And the next one, C[C@H](NC(=O)c1nc[nH]c1C(=O)NCC(=O)OC(C)(C)C)C(=O)OCc1ccccc1 ?
41.9

Here is the next compound: Cc1c(CCC(=O)O)c(=O)oc2c(C)c(OCc3ccccc3Cl)ccc12
1.3

Similarly, N#Cc1ccc(OCC(=O)Nc2nc(-c3ccccn3)cs2)cc1 ?
69.2

----------
experiment: H9c2 cardiomyocyte survival under peroxide injury – uHTS, H9c2 cells, ATPLite luminescence, primary screen (AID 588492); settings: H9c2 cardiomyocytes, 2 h, at 20 µM, hits give high values;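 note: 0% = DMSO wells with peroxide and 100% = DMSO wells without peroxide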
Among all 360,000 compounds or so, about 2,300 (0.64%) were called active. Only a selection was taken, and actives are over-represented in it overall.
Measurement Label: protection from H2O2 cell death (%)
Respond with the bare value in %.

Known results for molecules:
Query (molecule): COc1ccc(-c2nn3c(-c4ccccc4)nnc3s2)cc1OC ; field requested: protection from H2O2 cell death
63.1

# iterate: COc1ccc(NC(=O)c2oc3ccc(S(=O)(=O)N4CCOCC4)cc3c2C)cc1
52.7

Continuing:
Give the measured protection from H2O2 cell death of COc1cc(OC)nc(N/N=C(\c2ccccc2)c2ccncc2)n1 .
-2.9

Note, next up: C[C@@H]1CN([C@H](C)CO)S(=O)(=O)c2ccc(C#C[C@@H](C)O)cc2O[C@@H]1CN(C)Cc1ccc(-c2ccccc2)cc1
-5.2

Do the same for c1ccc(-c2cc(-c3nnc4sc(-c5ccccn5)nn34)[nH]n2)cc1 please
63.3

CC(C)C1CCN(C(=O)C2CCC(=O)N(C3CCCCCC3)C2)CC1 (centres undefined) , same question.
-2.1

Could you do the same for COc1ccc2c(c1)C(NS(=O)(=O)OCC(Cl)(Cl)Cl)CCC2 (centres undefined) , please?
-4.5

// repeat for COc1ccc(NC(=O)c2cc3nc(-c4ccccc4)cc(C)n3n2)cc1OC and report
36.7

Ok, now CN(C(=O)c1ccccn1)c1nnc(-c2ccccn2)s1
-5.5

Again, but for O=c1c2ccccc2ncn1/N=C/c1ccccc1
-10.6

# repeat for c1ccc(C(=NNc2nc3ccccc3s2)c2ccccn2)cc1
51.5

Record: CCn1c(C(O)c2cc(OC)ccc2OC)nc2ccccc21 (centres undefined)
-3.6

Can you handle O=Cc1c(N2CCN(c3cccc(Cl)c3)CC2)nc2ccccn2c1=O next?
42.7

Proceed to COc1ccc(NC(=O)CN(C)C(=O)c2cc(C)oc2C)cc1
-3.2

----------
test: H9c2 cardiomyocyte survival under peroxide injury – uHTS, H9c2 cells, ATPLite luminescence, primary screen (AID 588492); conditions: H9c2 cardiomyocytes, 2 h, at 20 µM, hits give high values;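 note: 0% = DMSO wells with peroxide and 100% = DMSO wells without peroxide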
In all, about 360,000 compounds went through this assay and about 2,300 (0.64%) were called active. This is one part of a sample in which actives are shown more often than they occur.
// protection from H2O2 cell death lookup, one value per entry

Reported protection from H2O2 cell death for COc1ccccc1C(=O)NC(CCSC)C(=O)NNC(=O)c1ccccc1C (stereo not given) : what is it?
4.9% (inactive)

----------
test: H9c2 cardiomyocyte survival under peroxide injury – uHTS, H9c2 cells, ATPLite luminescence, primary screen (AID 588492); conditions: H9c2 cardiomyocytes, 2 h, at 20 µM;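 note: 0% = DMSO wells with peroxide and 100% = DMSO wells without peroxide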
Screen size: about 360,000 compounds; about 2,300 (0.64%) were called active.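 The calls were made as follows: active = compounds giving at least 50% protection of heart cells from peroxide-induced death in the single-dose screen, raw or plate-pattern-corrected value; inactive = the rest.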 The sample holds actives, similar compounds and a random draw of the others, so the mix is not that of the screen.
Valid outcomes are listed here; reply with one: y = active, n = inactive

Check out these entries, answers already filled in.
# fetch the recorded call for Cc1ccc(S(=O)(=O)N(C)CC(=O)OCC(=O)Nc2ccccc2)cc1 here
n

Check O=C(COC(=O)Cn1[nH]c(=O)c2ccccc2c1=O)Nc1ncc(Cl)cc1Cl too.
y

Repeat for the following compound: CC(Oc1ccc(Cl)cc1)C(=O)OCC(=O)Nc1ncc(Cl)cc1Cl (stereo unspecified)
n

Now this one: CO/N=C(/CS(=O)(=O)c1ccc(Br)cc1)c1ccc(OC)cc1
n

Others:
// param item: CCCCC(=O)Nc1cc(C)c2c(=O)oc3ccccc3c2n1 ; yields the recorded call
y

Follow-up item: O=C(COC(=O)Cn1[nH]c(=O)c2ccccc2c1=O)Nc1c(Cl)cccc1C(F)(F)F
y

----------
assay: H9c2 cardiomyocyte survival under peroxide injury – uHTS, H9c2 cells, ATPLite luminescence, primary screen (AID 588492); conditions: H9c2 cardiomyocytes, 2 h, at 20 µM;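 note: 0% = DMSO wells with peroxide and 100% = DMSO wells without peroxide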
About 2,300 (0.64%) of roughly 360,000 compounds were called active.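 The calls were made as follows: active = compounds giving at least 50% protection of heart cells from peroxide-induced death in the single-dose screen, raw or plate-pattern-corrected value; inactive = the rest.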 This is one part of a sample in which actives are shown more often than they occur.
Answer with one of the outcomes given here: 1.0 (active), 0.0 (inactive)

Could you please tell me the result logged for Cn1c(SCC(=O)N/N=C/c2ccc(O)c(O)c2)nc2ccccc21 in this assay?
1.0

Item: CCOc1cc(NS(=O)(=O)c2ccc(OC)cc2)c(OCC)cc1NC(C)=O
0.0

Next:
I'd appreciate the recorded outcome for Cn1c2c(c(=O)n(C)c1=O)C(c1ccc(O)cc1)Nc1ccccc1O2 (centres undefined) from this test.
0.0

Could you do the same for Cc1ccc(/C=N/NC(=O)CSc2nc3ccccc3o2)cc1 , please?
0.0

Where do these numbers come from? They come from PubChem BioAssay AID588492.
